For each of the compounds below, state its IC50.
# System: HT-29 (monolayer culture of a human colon carcinoma)
# testSummary: Cytotoxic activity screening, HT-29 cells
# Format: cell-based
# particulars: Homo sapiens, HT-29, 72 h, three days of incubation, Crystal Violet, approximate IC50
Answers are plain numbers, in ng/mL.

Examples from the recorded data:
COc1c(C)cc2c(c1O)[C@@H]1C3[C@@H]4SC[C@H](NC(=O)C(F)(F)F)C(=O)OC[C@@H](c5c6c(c(C)c(OC(C)=O)c54)OCO6)N3[C@@H](C#N)[C@H](C2)N1C (stereo partly shown)	1
CCCCCCCC(=O)N[C@H]1CS[C@@H]2c3c(OC(C)=O)c(C)c4c(c3[C@H](COC1=O)N1C2[C@H]2c3c(cc(C)c(OC)c3O)C[C@@H]([C@@H]1O)N2C)OCO4 (stereo partly shown)	1
COc1c(C)cc2c(c1O)[C@@H]1C3[C@@H]4SCC(NCc5ccccc5)C(=O)OC[C@@H](c5c6c(c(C)c(OC(C)=O)c54)OCO6)N3[C@@H](C#N)[C@H](C2)N1C (stereo partly shown)	0.5
COc1c(C)cc2c(c1O)[C@@H]1C3[C@@H]4SC[C@@H](NC(C)=O)C(=O)OC[C@@H](c5c6c(c(C)c(OC(C)=O)c54)OCO6)N3[C@@H](O)[C@H](C2)N1C (stereo partly shown)	0.1
COc1c(C)cc2c(c1O)[C@@H]1C3[C@@H]4SC[C@H](N(C)C)C(=O)OC[C@@H](c5c6c(c(C)c(OC(C)=O)c54)OCO6)N3[C@@H](C#N)[C@H](C2)N1C (stereo partly shown)	10

Provide IC50 for all items below, preserving their order.
1. CCCCCCCC(=O)O[C@H]1CS[C@@H]2c3c(OC(C)=O)c(C)c4c(c3[C@H](COC1=O)N1C2[C@H]2c3c(cc(C)c(OC)c3O)C[C@@H]([C@@H]1O)N2C)OCO4 (stereo partly shown) [Compound 21e]
2. COc1c(C)cc2c(c1O)[C@@H]1C3[C@@H]4SC[C@H](O)C(=O)OC[C@@H](c5c6c(c(C)c(OC(C)=O)c54)OCO6)N3[C@@H](O)[C@H](C2)N1C (stereo partly shown)

Ans:
1. 1
2. 1

Provide IC50 for all items below, preserving their order.
1. COc1c(C)cc2c(c1O)[C@@H]1C3[C@@H]4SC[C@H](NC(=O)CCC(=O)O)C(=O)OC[C@@H](c5c6c(c(C)c(OC(C)=O)c54)OCO6)N3[C@@H](C#N)[C@H](C2)N1C (stereo partly shown)
2. COc1c(C)cc2c(c1O)[C@@H]1C3[C@@H]4SC[C@H](NC(=O)C(C)N)C(=O)OC[C@@H](c5c6c(c(C)c(OC(C)=O)c54)OCO6)N3[C@@H](C#N)[C@H](C2)N1C (stereo partly shown)
3. COc1c(C)cc2c(c1O)[C@@H]1C3[C@@H]4SC[C@H](NC(=O)C(N)C(C)C)C(=O)OC[C@@H](c5c6c(c(C)c(OC(C)=O)c54)OCO6)N3[C@@H](C#N)[C@H](C2)N1C (stereo partly shown)
4. CCCC(=O)N[C@H]1CS[C@@H]2c3c(OC(C)=O)c(C)c4c(c3[C@H](COC1=O)N1C2[C@H]2c3c(cc(C)c(OC)c3O)C[C@@H]([C@@H]1O)N2C)OCO4 (stereo partly shown)
5. COc1c(C)cc2c(c1O)[C@@H]1C3[C@@H]4SC[C@H](NC(=O)C(NC(=O)C(C)NC(=O)/C=C/c5ccccc5)C(C)C)C(=O)OC[C@@H](c5c6c(c(C)c(OC(C)=O)c54)OCO6)N3[C@@H](C#N)[C@H](C2)N1C (stereo partly shown)
6. COc1c(C)cc2c(c1O)[C@@H]1C3[C@@H]4SC[C@@H](OC(C)=O)C(=O)OC[C@@H](c5c6c(c(C)c(OC(C)=O)c54)OCO6)N3[C@@H](O)[C@H](C2)N1C (stereo partly shown) [Compound 21a]

Ans:
[100, 1, 1, 0.1, 1, 1]

Provide IC50 for all items below, preserving their order.
1. COc1c(C)cc2c(c1O)[C@@H]1C3[C@@H]4SC[C@H](NC(=O)/C=C/c5ccccc5)C(=O)OC[C@@H](c5c6c(c(C)c(OC(C)=O)c54)OCO6)N3[C@@H](C#N)[C@H](C2)N1C (stereo partly shown)
2. COc1c(C)cc2c(c1O)[C@@H]1C3[C@@H]4SCC(NC(=O)C(N)C(C)C)C(=O)OC[C@@H](c5c6c(c(C)c(OC(C)=O)c54)OCO6)N3[C@@H](O)[C@H](C2)N1C (stereo partly shown)

Ans:
[0.5, 0.5]

Provide IC50 for all items below, preserving their order.
1. CCCC(=O)O[C@H]1CS[C@@H]2c3c(OC(C)=O)c(C)c4c(c3[C@H](COC1=O)N1C2[C@H]2c3c(cc(C)c(OC)c3O)C[C@@H]([C@@H]1C#N)N2C)OCO4 (stereo partly shown) [Compound 17c]
2. COc1c(C)cc2c(c1O)[C@@H]1C3[C@@H]4SC[C@H](NC(=O)c5ccccc5)C(=O)OC[C@@H](c5c6c(c(C)c(OC(C)=O)c54)OCO6)N3[C@@H](C#N)[C@H](C2)N1C (stereo partly shown)
3. COc1c(C)cc2c(c1O)[C@@H]1C3[C@@H]4SC[C@H](NC(=O)C(C)NC(=O)/C=C/c5ccccc5)C(=O)OC[C@@H](c5c6c(c(C)c(OC(C)=O)c54)OCO6)N3[C@@H](C#N)[C@H](C2)N1C (stereo partly shown)

Ans:
1
0.1
0.1
